Just for reference, ChEMBL document CHEMBL4513216 is where these values come from.

The entries below come with measured cytotoxicity at 10 µM values attached.
assay: Toxicity liver stage against HepG2, at 10uM; assay type: cell-based; parameters: test concentration 10 uM, cell line HepG2-A16-CD81EGFP; conditions: human, HepG2-A16-CD81EGFP cells; read-out: INHIBITION
Expressed in %, but write only the number.

Illustrative cases are given below, each with its answer.
>>> df
                                   compound  measure_unit  result_number
0  CC(C)Oc1cc(N2C[C@H](C3CC3)[C@@H](N)C2)nc(N)n1             %          -4.75
1  CN(Cc1ccco1)[C@@H]1CN(Cc2cccs2)C[C@@H]2CCCO[C@@H]21             %           3.65
2                   Cc1ccc(CNC(=O)NCCCO)cc1             %          -16.2
3  Cc1ccc(-c2ccnc(NCC3(N(C)C)CCOCC3)n2)c(C)n1             %           13.1

**Query** cytotoxicity at 10 µM lookup needed for `CCCN1CCCN(c2ccc(-n3ccc(C)n3)nn2)CC1` , thanks.
**Result** -1.2

**Query** cytotoxicity at 10 µM lookup needed for O=C(Nc1cn[nH]c1)NC1CCN(c2ccccc2OC(F)F)C1 (stereo unspecified) , thanks.
**Result** 26.1

**Query** cytotoxicity at 10 µM lookup needed for c1ccc(COCCN2CCc3[nH]cnc3C2c2ccco2)cc1 (stereo unspecified) , thanks.
**Result** -2.01

**Query** cytotoxicity at 10 µM lookup needed for COc1ccc(COCC(O)CNC(=O)c2cnc(C)cn2)cc1 (stereo unspecified) , thanks.
**Result** -2

**Query** cytotoxicity at 10 µM lookup needed for Cc1cc(C)n(-c2ccc(N3CCC4(CC3)OCC(C)O4)nc2)n1 (stereo unspecified) , thanks.
**Result** -1.39

**Query** cytotoxicity at 10 µM lookup needed for CCSCCNC(=O)C(c1cccc(F)c1)N(C)C (stereo unspecified) , thanks.
**Result** -11.9

**Query** cytotoxicity at 10 µM lookup needed for `NC(=O)CN1CCC(NC(=O)COc2ccc(Cl)c(Cl)c2)CC1` , thanks.
**Result** -8.7
